- Test system: Mycobacterium tuberculosis
- TEST_METHOD_NOTES: In vitro antimycobacterial activity against Mycobacterium tuberculosis H37Rv in broth cluture infected with macrophages
- Type: functional
Here, each record is paired with measured MIC data.
METRIC_NAME: MIC (µg/mL)

>  <COMPOUND>
C/C(=N\NC(=O)c1ccncc1)c1cccc(/C(C)=N/NC(=O)c2ccncc2)n1

>  <READING_QUALIFIER>
≤

>  <ASSAY_RESULT>
0.2

$$$$
>  <COMPOUND>
O=C(N/N=C/c1ccccc1F)c1ccncc1

>  <READING_QUALIFIER>
=

>  <ASSAY_RESULT>
0.05

$$$$
>  <COMPOUND>
O=C(N/N=C/C(F)(F)F)c1ccncc1

>  <READING_QUALIFIER>
=

>  <ASSAY_RESULT>
0.05

$$$$
>  <COMPOUND>
CC(NNC(=O)c1ccncc1)c1ccccc1F (stereo unspecified)

>  <READING_QUALIFIER>
=

>  <ASSAY_RESULT>
1.6

$$$$
>  <COMPOUND>
C/C(=N\NC(=O)c1ccncc1)C(F)(F)F

>  <READING_QUALIFIER>
=

>  <ASSAY_RESULT>
0.05

$$$$
>  <COMPOUND>
N#CC[n+]1ccc(C(=O)NNCC(F)(F)F)cc1

>  <READING_QUALIFIER>
=

>  <ASSAY_RESULT>
0.78

$$$$
